Reference source for all entries: the supplement of paper PMC9170038

- Test system: MS2 coat protein
- METHOD: apparent KD of MS2 coat protein; designed switch direction (-1 OFF switch, 1 ON switch): -1; higher = weaker reporter binding
- MEASUREMENT_CONTEXT: input ligand: FMN 200 uM
MEASUREMENT_NAME: apparent KD of MS2 coat protein (µM)

>>> readout_number("GUCAUGUAAGGAUAUCUUACAUGUGACUUCGGUCACUGUCAAGAGAAGGUACAUGAGGAUCACCCAUGUUCGAC [Ex4-3: 52] (Eterna round: R96, puzzle: Exclusion 4)")
0.0264
>>> readout_number("ACGGGUAAGUAAGGAUAUCCAACAGGCUGAUUUCAGUCUGAACAUGAGGAUCACCCAUGUGGGUGGGAGAAGGUACUCUCCCGC [Atbienarza] (Eterna round: R96, puzzle: Exclusion NG 2)")
0.107
>>> readout_number("ACCAAGCUAUGCACGUCUGACAUGAGGAUCACCCAUGUAGCCGGUCUCGGAAGGAGACAGGCUCCAGGUGGCUCAGA [Eternabot (Original) Solution 37] (Eterna round: R97, puzzle: Sensor, turn-off variant 1)")
0.683
